SYSTEM_NAME: HIV-1 pseudovirus 263-8 (HIV-1)
EXPERIMENTAL_DETAILS: cell-based or functional assay
QUANTITY: IC50 (neutralization in TZM.bl cells) (µg/mL)

BINDER | TEST_RESULT
MS-77 (antibody, V domains shown) VH: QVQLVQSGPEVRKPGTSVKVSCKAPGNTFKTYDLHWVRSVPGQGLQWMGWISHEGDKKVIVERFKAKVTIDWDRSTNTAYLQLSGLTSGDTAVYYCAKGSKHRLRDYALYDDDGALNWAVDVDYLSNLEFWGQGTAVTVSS VL: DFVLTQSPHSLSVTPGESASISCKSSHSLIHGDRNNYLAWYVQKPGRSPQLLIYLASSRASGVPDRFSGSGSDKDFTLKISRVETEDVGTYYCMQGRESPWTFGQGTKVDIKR | 0.012
MS-88 (antibody, V domains shown) VH: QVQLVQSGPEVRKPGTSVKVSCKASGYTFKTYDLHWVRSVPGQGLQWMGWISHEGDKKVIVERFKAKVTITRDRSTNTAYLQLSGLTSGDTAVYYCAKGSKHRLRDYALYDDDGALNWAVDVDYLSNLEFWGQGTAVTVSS VL: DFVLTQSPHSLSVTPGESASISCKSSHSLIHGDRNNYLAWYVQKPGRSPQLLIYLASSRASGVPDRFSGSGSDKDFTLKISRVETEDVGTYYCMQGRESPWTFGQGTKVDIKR | 0.111
MS-87 (antibody, V domains shown) VH: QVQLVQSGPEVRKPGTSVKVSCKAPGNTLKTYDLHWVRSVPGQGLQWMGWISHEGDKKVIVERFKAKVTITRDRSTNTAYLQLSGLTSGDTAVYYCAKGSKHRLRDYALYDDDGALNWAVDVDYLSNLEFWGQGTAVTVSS VL: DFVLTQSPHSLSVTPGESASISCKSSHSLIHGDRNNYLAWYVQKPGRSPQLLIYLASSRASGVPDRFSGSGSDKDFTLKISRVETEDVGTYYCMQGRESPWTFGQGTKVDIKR | 0.065
MS-79 (antibody, V domains shown) VH: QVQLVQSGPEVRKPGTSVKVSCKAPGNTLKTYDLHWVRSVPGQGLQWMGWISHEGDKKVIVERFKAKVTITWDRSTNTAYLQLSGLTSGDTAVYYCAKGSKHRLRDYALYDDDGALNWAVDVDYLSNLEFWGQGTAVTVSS VL: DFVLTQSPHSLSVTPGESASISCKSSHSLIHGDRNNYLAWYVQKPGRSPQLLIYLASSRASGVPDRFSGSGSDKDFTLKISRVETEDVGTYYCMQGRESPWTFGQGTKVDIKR | 0.018
MS-78 (antibody, V domains shown) VH: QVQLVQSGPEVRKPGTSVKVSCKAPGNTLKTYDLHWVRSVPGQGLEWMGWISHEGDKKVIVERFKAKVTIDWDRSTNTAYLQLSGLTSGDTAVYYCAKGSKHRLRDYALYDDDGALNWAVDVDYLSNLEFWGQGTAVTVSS VL: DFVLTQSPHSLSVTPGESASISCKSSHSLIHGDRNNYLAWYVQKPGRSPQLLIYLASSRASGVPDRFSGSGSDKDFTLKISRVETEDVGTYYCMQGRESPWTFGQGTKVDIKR | 0.014
MS-81 (antibody, V domains shown) VH: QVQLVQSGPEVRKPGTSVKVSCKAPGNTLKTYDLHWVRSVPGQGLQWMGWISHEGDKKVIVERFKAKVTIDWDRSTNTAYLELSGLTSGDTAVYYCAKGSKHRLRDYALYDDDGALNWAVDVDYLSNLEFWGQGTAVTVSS VL: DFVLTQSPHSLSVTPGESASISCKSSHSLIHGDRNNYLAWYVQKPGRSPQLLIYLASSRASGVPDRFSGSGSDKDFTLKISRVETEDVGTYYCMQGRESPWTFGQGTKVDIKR | 0.013
MS-82 (antibody, V domains shown) VH: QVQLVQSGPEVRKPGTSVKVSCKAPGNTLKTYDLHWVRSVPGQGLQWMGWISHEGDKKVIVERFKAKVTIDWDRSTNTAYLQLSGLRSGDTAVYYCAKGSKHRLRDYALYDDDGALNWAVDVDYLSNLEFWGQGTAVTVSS VL: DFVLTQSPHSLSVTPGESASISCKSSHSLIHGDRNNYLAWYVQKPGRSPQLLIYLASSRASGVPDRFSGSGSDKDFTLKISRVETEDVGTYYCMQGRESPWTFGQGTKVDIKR | 0.011
MS-91 (antibody, V domains shown) VH: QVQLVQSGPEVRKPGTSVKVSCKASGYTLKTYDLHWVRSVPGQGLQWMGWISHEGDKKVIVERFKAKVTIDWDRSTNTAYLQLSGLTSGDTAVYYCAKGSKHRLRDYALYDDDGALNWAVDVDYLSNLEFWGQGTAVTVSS VL: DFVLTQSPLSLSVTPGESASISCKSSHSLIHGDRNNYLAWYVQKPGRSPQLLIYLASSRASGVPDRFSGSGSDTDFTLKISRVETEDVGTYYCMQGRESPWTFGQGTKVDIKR | 0.02
MS-92 (antibody, V domains shown) VH: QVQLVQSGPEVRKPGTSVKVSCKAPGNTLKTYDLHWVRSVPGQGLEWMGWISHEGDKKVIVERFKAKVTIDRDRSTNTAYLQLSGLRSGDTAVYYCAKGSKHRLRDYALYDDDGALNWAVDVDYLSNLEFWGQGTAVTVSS VL: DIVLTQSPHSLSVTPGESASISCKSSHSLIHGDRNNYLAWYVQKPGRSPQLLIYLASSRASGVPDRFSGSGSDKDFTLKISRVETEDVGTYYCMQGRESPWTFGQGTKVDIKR | 0.024
